Measured inhibition at 10 µM, listed per entry.
target: HPK1 (MAP4K1) (Homo sapiens); experiment: FRET Assay for HPK1 (MAP4K1): one step binding assay, displacement of labeled tracer; conditions: 10 μM compound; FRET ratio 665/620, percent of control
Sequence (Q92918 whole entry): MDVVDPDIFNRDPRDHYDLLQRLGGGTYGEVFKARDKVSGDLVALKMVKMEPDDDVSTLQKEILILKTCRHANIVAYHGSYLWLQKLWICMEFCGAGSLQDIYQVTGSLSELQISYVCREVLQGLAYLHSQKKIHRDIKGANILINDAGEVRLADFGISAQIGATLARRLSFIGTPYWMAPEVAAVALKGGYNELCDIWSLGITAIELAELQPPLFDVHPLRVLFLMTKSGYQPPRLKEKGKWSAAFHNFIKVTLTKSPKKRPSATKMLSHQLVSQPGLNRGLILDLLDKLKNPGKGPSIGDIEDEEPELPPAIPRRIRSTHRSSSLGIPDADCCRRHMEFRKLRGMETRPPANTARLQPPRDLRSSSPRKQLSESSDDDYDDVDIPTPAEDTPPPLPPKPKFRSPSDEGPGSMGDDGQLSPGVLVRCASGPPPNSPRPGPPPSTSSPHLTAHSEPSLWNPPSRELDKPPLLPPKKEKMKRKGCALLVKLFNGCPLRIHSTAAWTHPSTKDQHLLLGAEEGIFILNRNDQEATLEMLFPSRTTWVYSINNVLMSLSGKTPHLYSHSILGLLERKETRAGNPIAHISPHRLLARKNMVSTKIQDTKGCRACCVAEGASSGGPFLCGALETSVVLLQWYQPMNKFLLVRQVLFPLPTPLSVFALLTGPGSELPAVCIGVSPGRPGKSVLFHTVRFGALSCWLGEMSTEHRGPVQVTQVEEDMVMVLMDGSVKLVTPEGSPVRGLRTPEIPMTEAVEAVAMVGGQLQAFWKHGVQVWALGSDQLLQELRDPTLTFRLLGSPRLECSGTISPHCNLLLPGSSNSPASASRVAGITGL
Supply the numeric figure in %, leaving out any unit text.

COc1cccc(F)c1-c1cc2c(cn1)NC(=O)/C2=C(/C)Nc1ccc(N2CCNCC2)cc1 | 77
COc1cccc(F)c1-c1ccc2c(n1)/C(=C(\C)Nc1cnn(C)c1)C(=O)N2 | 89.2

Value of inhibition at 10 µM reported for the compound "C/C(Nc1cc(C)n(CC(C)(C)O)n1)=C1/C(=O)Nc2cnc(-c3cnccc3C)cc21" is 80.8

// recorded inhibition at 10 µM for "C/C(Nc1ccn(C2COC2)n1)=C1/C(=O)Nc2cnc(-c3cnccc3C)cc21" : 69

The compound listed as "C/C(Nc1cnn(C)c1)=C1/C(=O)Nc2cnc(-c3cc(C#N)ccc3C)cc21" has a reported inhibition at 10 µM of 19.6

Kindly note the recorded inhibition at 10 µM for "CCS(=O)(=O)n1cc(N/C(C)=C2\C(=O)Nc3cnc(-c4cnccc4C)cc32)cn1" , which is 78

Short answer for "C/C(Nc1ccc(N2CCN(C3COC3)CC2)nc1)=C1/C(=O)Nc2ccc(F)cc21" : inhibition at 10 µM was 85.5
